# System: HIV-2 (ROD)
# assay-info: Inhibition of HIV-2 syncytium formation in CEM cells
# Type: cell-based
# test-parameters: CEM cells, syncytium formation, day four post infection
assay-endpoint: EC50 (ug/ml) HIV-2 (µg/mL)

- molecule: "Cc1ccc(C)c(C(C)S(=O)(=O)c2c(Cl)ccc[n+]2[O-])c1 (racemic)"
  assayed-system: "HIV-2 (ROD)"
  assay-endpoint: "EC50 (ug/ml) HIV-2"
  qualifier-sign: ">"
  number: 0.80
- molecule: "Cc1ccc[n+]([O-])c1S(=O)(=O)C(C)c1ccccc1Cl (centres unmarked)"
  assayed-system: "HIV-2 (ROD)"
  assay-endpoint: "EC50 (ug/ml) HIV-2"
  qualifier-sign: ">"
  number: 20.00
- molecule: "COc1ccc(C)cc1CS(=O)(=O)c1cccc[n+]1[O-]"
  assayed-system: "HIV-2 (ROD)"
  assay-endpoint: "EC50 (ug/ml) HIV-2"
  qualifier-sign: "="
  number: 14.0
- molecule: "O=[N+]([O-])c1ccc(CS(=O)(=O)c2cccc[n+]2[O-])cc1"
  assayed-system: "HIV-2 (ROD)"
  assay-endpoint: "EC50 (ug/ml) HIV-2"
  qualifier-sign: ">"
  number: 4
- molecule: "Cc1ccccc1C(C)S(=O)(=O)c1cccc[n+]1[O-] (centres unmarked)"
  assayed-system: "HIV-2 (ROD)"
  assay-endpoint: "EC50 (ug/ml) HIV-2"
  qualifier-sign: "="
  number: 2.5
- molecule: "Cc1ccc(C)c(CSc2c(C)ccc[n+]2[O-])c1"
  assayed-system: "HIV-2 (ROD)"
  assay-endpoint: "EC50 (ug/ml) HIV-2"
  qualifier-sign: ">"
  number: 20
- molecule: "[O-][n+]1cc(Cl)ccc1SCc1ccccc1"
  assayed-system: "HIV-2 (ROD)"
  assay-endpoint: "EC50 (ug/ml) HIV-2"
  qualifier-sign: ">"
  number: 20.00
- molecule: "O=S(=O)(Cc1ccc(Cl)cc1Cl)c1cccc[n+]1[O-]"
  assayed-system: "HIV-2 (ROD)"
  assay-endpoint: "EC50 (ug/ml) HIV-2"
  qualifier-sign: "="
  number: 2.5
- molecule: "N#Cc1ccc(CS(=O)(=O)c2cccc[n+]2[O-])cc1"
  assayed-system: "HIV-2 (ROD)"
  assay-endpoint: "EC50 (ug/ml) HIV-2"
  qualifier-sign: "="
  number: 10.0
- molecule: "Cc1cc[n+]([O-])c([S+]([O-])Cc2ccc(Cl)cc2)c1 (centres unmarked)"
  assayed-system: "HIV-2 (ROD)"
  assay-endpoint: "EC50 (ug/ml) HIV-2"
  qualifier-sign: "="
  number: 7.0
- molecule: "O=[N+]([O-])c1cc(CS(=O)(=O)c2cccc[n+]2[O-])cc([N+](=O)[O-])c1"
  assayed-system: "HIV-2 (ROD)"
  assay-endpoint: "EC50 (ug/ml) HIV-2"
  qualifier-sign: "="
  number: 3.5
- molecule: "Cc1ccc[n+]([O-])c1SCc1c(Cl)cccc1Cl"
  assayed-system: "HIV-2 (ROD)"
  assay-endpoint: "EC50 (ug/ml) HIV-2"
  qualifier-sign: ">"
  number: 20.00
- molecule: "O=S(=O)(Cc1cc2c(cc1Cl)OCO2)c1cccc[n+]1[O-]"
  assayed-system: "HIV-2 (ROD)"
  assay-endpoint: "EC50 (ug/ml) HIV-2"
  qualifier-sign: "="
  number: 6.3
- molecule: "Cc1ccc(C)c(C(C)[S+]([O-])c2cccc[n+]2[O-])c1 (centres unmarked)"
  assayed-system: "HIV-2 (ROD)"
  assay-endpoint: "EC50 (ug/ml) HIV-2"
  qualifier-sign: ">"
  number: 0.8
- molecule: "Cc1ccc(C)c(C(C)S(=O)(=O)c2cc(C)cc(C)[n+]2[O-])c1 (centres unmarked)"
  assayed-system: "HIV-2 (ROD)"
  assay-endpoint: "EC50 (ug/ml) HIV-2"
  qualifier-sign: ">"
  number: 20.0
- molecule: "[O-][n+]1ccccc1[S+]([O-])Cc1cccc(C(F)(F)F)c1 (centres unmarked)"
  assayed-system: "HIV-2 (ROD)"
  assay-endpoint: "EC50 (ug/ml) HIV-2"
  qualifier-sign: "="
  number: 17.0
- molecule: "[O-][n+]1ccccc1[S+]([O-])Cc1ccc(F)cc1 (centres unmarked)"
  assayed-system: "HIV-2 (ROD)"
  assay-endpoint: "EC50 (ug/ml) HIV-2"
  qualifier-sign: "="
  number: 4.0
- molecule: "Cc1ccc(CS(=O)(=O)c2cccc[n+]2[O-])c(C)c1"
  assayed-system: "HIV-2 (ROD)"
  assay-endpoint: "EC50 (ug/ml) HIV-2"
  qualifier-sign: "="
  number: 6.5
- molecule: "O=S(=O)(Cc1ccccc1Oc1ccccc1)c1cccc[n+]1[O-]"
  assayed-system: "HIV-2 (ROD)"
  assay-endpoint: "EC50 (ug/ml) HIV-2"
  qualifier-sign: "="
  number: 4.7
- molecule: "O=S(=O)(Cc1ccccc1)c1ccccn1"
  assayed-system: "HIV-2 (ROD)"
  assay-endpoint: "EC50 (ug/ml) HIV-2"
  qualifier-sign: "="
  number: 50.0
- molecule: "Cc1ccc(C)c(C(C)S(=O)(=O)c2ccccn2)c1 (centres unmarked)"
  assayed-system: "HIV-2 (ROD)"
  assay-endpoint: "EC50 (ug/ml) HIV-2"
  qualifier-sign: ">"
  number: 100
- molecule: "O=S(=O)(Cc1cccc2ccccc12)c1cccc[n+]1[O-]"
  assayed-system: "HIV-2 (ROD)"
  assay-endpoint: "EC50 (ug/ml) HIV-2"
  qualifier-sign: "="
  number: 6.0
- molecule: "CCc1ccc(CS(=O)(=O)c2cccc[n+]2[O-])cc1"
  assayed-system: "HIV-2 (ROD)"
  assay-endpoint: "EC50 (ug/ml) HIV-2"
  qualifier-sign: "="
  number: 5.0
- molecule: "COc1ccc(C=C(C#N)Sc2cccc[n+]2[O-])cc1"
  assayed-system: "HIV-2 (ROD)"
  assay-endpoint: "EC50 (ug/ml) HIV-2"
  qualifier-sign: ">"
  number: 20
- molecule: "COc1ccc([N+](=O)[O-])cc1CS(=O)(=O)c1cccc[n+]1[O-]"
  assayed-system: "HIV-2 (ROD)"
  assay-endpoint: "EC50 (ug/ml) HIV-2"
  qualifier-sign: "="
  number: 13.0
- molecule: "CC(C)c1cc(CS(=O)(=O)c2cccc[n+]2[O-])c(C(C)C)cc1Br"
  assayed-system: "HIV-2 (ROD)"
  assay-endpoint: "EC50 (ug/ml) HIV-2"
  qualifier-sign: "="
  number: 2.5
- molecule: "Cc1cc(CS(=O)(=O)c2cccc[n+]2[O-])ccc1[N+](=O)[O-]"
  assayed-system: "HIV-2 (ROD)"
  assay-endpoint: "EC50 (ug/ml) HIV-2"
  qualifier-sign: "="
  number: 2.5
- molecule: "Cc1cc([N+](=O)[O-])ccc1CS(=O)(=O)c1c(C)ccc[n+]1[O-]"
  assayed-system: "HIV-2 (ROD)"
  assay-endpoint: "EC50 (ug/ml) HIV-2"
  qualifier-sign: ">"
  number: 4.0
- molecule: "Cc1ccc[n+]([O-])c1S(=O)(=O)C(C)c1ccccc1 (centres unmarked)"
  assayed-system: "HIV-2 (ROD)"
  assay-endpoint: "EC50 (ug/ml) HIV-2"
  qualifier-sign: ">"
  number: 20.00
